Sourced from patent US10611750B2

- target-desc: BRD4 Bromodomain 2 (BRD4 BD2) (Homo sapiens, UniProt O60885)
- Construct: 333-460 were cloned, expressed, and purified to homogeneity
- assay-protocol: AlphaScreen binding assay, BRD4 BD2
- condition-label: His-tagged BRD4 BD2 100 nM, biotinylated H4 (1-21) K5/8/12/16 tetra-acetylated peptide 100 nM, compounds listed under IC50 range headings
metric: IC50

{"columns": ["input-smiles", "target-desc", "metric", "result"],
 "data": [
  ["CCCOc1c(-c2cnn(CCS(C)(=O)=O)c2)ccc2c1CC[C@H](C)N2C(=O)OC", "BRD4 Bromodomain 2 (BRD4 BD2) (Homo sapiens, UniProt O60885)", "IC50", "0.05 to 0.5 µM"],
  ["COC(=O)N1c2ccc(-c3cnn(CCS(C)(=O)=O)c3)c(Oc3ccc(C(F)(F)F)cn3)c2CC[C@@H]1C", "BRD4 Bromodomain 2 (BRD4 BD2) (Homo sapiens, UniProt O60885)", "IC50", "0.05 to 0.5 µM"],
  ["CC(=O)N1c2ccc(-c3cnn(C4CC4)c3)c(OCC(=O)N(C)C)c2CC[C@@H]1C", "BRD4 Bromodomain 2 (BRD4 BD2) (Homo sapiens, UniProt O60885)", "IC50", "< 0.05 µM"]
]}

(Q) Give the measured IC50 for COC(=O)N1c2ccc(-c3cnn(C4CC4)c3)c(O[C@@H](F)C(N)=O)c2CC[C@@H]1C
(A) ≥ 0.5 µM

(Q) Give the measured IC50 for CNC(=O)COc1c(-c2cnn(C3COC3)c2)ccc2c1CC[C@H](C)N2C(C)=O
(A) 0.05 to 0.5 µM

(Q) Give the measured IC50 for COC(=O)N1c2ccc(-c3cnn(C4CC4)c3)c(OCCN3CCCS3(=O)=O)c2CC[C@@H]1C
(A) < 0.05 µM

(Q) Give the measured IC50 for CC(=O)N1c2ccc(-c3cnn(C4CC4)c3)c(OCC(=O)N3CCOCC3)c2CC[C@@H]1C
(A) 0.05 to 0.5 µM

(Q) Give the measured IC50 for CC(=O)N1c2ccc(-c3cnn(C4CCNCC4)c3)c(Oc3nccc(C(F)(F)F)n3)c2CC[C@@H]1C
(A) 0.05 to 0.5 µM

(Q) Give the measured IC50 for COC(=O)N1c2ccc(-c3cnn(C4CCNCC4)c3)c(Oc3ccc(F)c(C#N)c3)c2CC[C@@H]1C
(A) < 0.05 µM

====

- target-desc: BRD4 Bromodomain 1 (BRD4 BD1) (Homo sapiens, UniProt O60885)
- Construct: 44-168 and BRD4 BD2
- assay-protocol: AlphaScreen binding assay, BRD4 BD1
- condition-label: His-tagged BRD4 BD1 50 nM, biotinylated H4 (1-21) K5/8/12/16 tetra-acetylated peptide 50 nM, compounds listed under IC50 range headings
metric: IC50

{"columns": ["compound", "IC50"],
 "data": [
  ["CC(=O)N1c2ccc(-c3cnn(C4CCNCC4)c3)c(OC3CCC3)c2CC[C@@H]1C [I-412]", "100 to 1000 nM"],
  ["CC(=O)N1c2c(F)cc(-c3cn(C)nn3)c(OC3CCC3)c2CC[C@@H]1C [I-126]", "1000 to 10000 nM"],
  ["CC(=O)N1c2ccc(-c3cnn(CCS(C)(=O)=O)c3)c(OCC(=O)N3CCCC3)c2CC[C@@H]1C [I-428]", "1000 to 10000 nM"],
  ["C[C@H]1CCc2c(ccc(-c3cnn(C4CC4)c3NS(C)(=O)=O)c2OC2CCC2)N1C(=O)C1CC1 [I-300]", "≥ 10000 nM"],
  ["COC(=O)N1c2ccc(-c3cnn(C4CC4)c3)c(O[C@H](F)C(N)=O)c2CC[C@@H]1C [I-19]", "1000 to 10000 nM"]
]}

(Q) Give the measured IC50 for CC(=O)Nc1c(-c2ccc3c(c2OC2CCC2)CC[C@H](C)N3C(=O)C2CC2)cnn1C1CC1 [I-301]
(A) 1000 to 10000 nM

(Q) Give the measured IC50 for CC(=O)N1c2ccc(-c3cnn(C4CC4)c3)c(Oc3ccc(C(N)=O)cc3)c2CC[C@@H]1C [I-209]
(A) 100 to 1000 nM

(Q) Give the measured IC50 for CC(=O)N1c2ccc(-c3cnn(C4CCNCC4)c3)c(Oc3ncccc3Cl)c2CC[C@@H]1C [I-142]
(A) 100 to 1000 nM
